assay: Cytotoxicity assay on L929 fibroblasts (AlamarBlue); assay type: cell-based; details: mouse

- compound: "Clc1ccc(CCC(Cn2ccnc2)Sc2c(Cl)cccc2Cl)cc1 (stereo not shown) [BTZ, butoconazole]"
  unit-info: "µM"
  EC50 at 168 h: 24

* * *

system: T. cruzi intracellular forms (Tulahuen strain); test: In vitro activity on intracellular forms of T. cruzi in L929 cells (β-galactosidase/CPRG); format: cell-based, Trypanosoma cruzi; settings: Tulahuen strain in L929, 96 h; read-out: Activity against T. cruzi intracellular forms EC50

- molecule: "Clc1ccc(CCC(Cn2ccnc2)Sc2c(Cl)cccc2Cl)cc1 (stereo not shown)"
  EC50, nM: 70
